# method: in vivo
# recorded_conditions: rat, plasma, iv, 0.03 mg, Plasma Level, 30 μg/rat, 30 min, individual rats I, II, III
reported_metric: concentration at 0.5 h (ng/mL)
Just the number in ng/mL, nothing appended.

Exercise: Return concentration at 0.5 h for the following compound: `C=CCN1CC[C@]23c4c5ccc(O)c4O[C@H]2C(=O)CC[C@@]3(O)[C@H]1C5`
Key: 7.28

###

# method: in vivo
# recorded_conditions: rat, plasma, iv, 0.03 mg
reported_metric: half-life (min)
Just the number in min, nothing appended.

Exercise: Return half-life for the following compound: `C=CCN1CC[C@]23c4c5ccc(O)c4O[C@H]2C(=O)CC[C@@]3(O)[C@H]1C5`
Key: 59.2

###

# method: in vivo
# recorded_conditions: rat, plasma, po, 0.03 mg, Area under the blood level curve (AUC ^.infin.0), Mean, oral (intraduodenal), 30 μg/rat, mean of 3 rats
reported_metric: AUC(0-inf) (ng·h/mL)
Just the number in ng·h/mL, nothing appended.

Exercise: Return AUC(0-inf) for the following molecule: C=CCN1CC[C@]23c4c5ccc(O)c4O[C@H]2C(=O)CC[C@@]3(O)[C@H]1C5 [naloxone]
Key: 0.367

###

# method: in vivo
# recorded_conditions: rat, plasma, 0.03 mg, Plasma Level, Mean, nasal, 30 μg/rat, 60 min, mean of 3 rats
reported_metric: concentration at 1 h

Exercise: Return concentration at 1 h for the following compound: C=CCN1CC[C@]23c4c5ccc(O)c4O[C@H]2C(=O)CC[C@@]3(O)[C@H]1C5 [naloxone]
Key: 6.41 ng/mL

###

# method: in vivo
# recorded_conditions: rat, plasma, 0.03 mg, Plasma Level, nasal, 30 μg/rat, 120 min, individual rats I, II, III
reported_metric: concentration at 2 h (ng/mL)
Just the number in ng/mL, nothing appended.

Exercise: Return concentration at 2 h for the following molecule: `C=CCN1CC[C@]23c4c5ccc(O)c4O[C@H]2C(=O)CC[C@@]3(O)[C@H]1C5`
Key: 3.65

###

# method: in vivo
# recorded_conditions: rat, plasma, 0.03 mg
reported_metric: half-life (min)
Just the number in min, nothing appended.

Exercise: Return half-life for the following compound: `C=CCN1CC[C@]23c4c5ccc(O)c4O[C@H]2C(=O)CC[C@@]3(O)[C@H]1C5`
Key: 52.1

###

# method: in vivo
# recorded_conditions: rat, plasma, 0.03 mg, Plasma Level, nasal, 30 μg/rat, 3 min, individual rats I, II, III
reported_metric: concentration at 0.05 h

Exercise: Return concentration at 0.05 h for the following compound: C=CCN1CC[C@]23c4c5ccc(O)c4O[C@H]2C(=O)CC[C@@]3(O)[C@H]1C5 [naloxone]
Key: 41.2 ng/mL

###

# method: in vivo
# recorded_conditions: rat, plasma, iv, 0.03 mg, Plasma Level, Mean, 30 μg/rat, 20 min, mean of 3 rats
reported_metric: concentration at 20 min (ng/mL)
Just the number in ng/mL, nothing appended.

Exercise: Return concentration at 20 min for the following compound: `C=CCN1CC[C@]23c4c5ccc(O)c4O[C@H]2C(=O)CC[C@@]3(O)[C@H]1C5`
Key: 11.6

###

# method: in vivo
# recorded_conditions: rat, plasma, iv, 0.03 mg, Plasma Level, 30 μg/rat, 3 min, individual rats I, II, III
reported_metric: concentration at 0.05 h (ng/mL)
Just the number in ng/mL, nothing appended.

Exercise: Return concentration at 0.05 h for the following compound: C=CCN1CC[C@]23c4c5ccc(O)c4O[C@H]2C(=O)CC[C@@]3(O)[C@H]1C5 [naloxone]
Key: 52.3

Origin of measurements: patent US4464378A
